Catalogue of molecules with associated Concentration_Plasma
# Test system: Mus musculus
# ASSAY NOTES: Level of plasma diclofenac in mice after oral administration of 20 umol/kg of prodrug
# Assay type: ADME, organism-based
# ASSAY CONDITIONS: in vivo
Lab book: enter the figure in nM ml-1, no units written.

[
  {
    "SMILES REPR": "CN(CCCCOC(=O)Cc1ccccc1Nc1c(Cl)cccc1Cl)CC1(SN=O)CCCCC1",
    "SUBJECT OF TEST": "Mus musculus",
    "Concentration_Plasma [nM ml-1]": 5.9
  }
]

Lookup: Fill in the blank: the reported Concentration_Plasma of "CCC(CC)(COC(=O)Cc1ccccc1Nc1c(Cl)cccc1Cl)SN=O" is ____.
Found: 13.4

Lookup: Fill in the blank: the reported Concentration_Plasma of "CC(C)(COC(=O)Cc1ccccc1Nc1c(Cl)cccc1Cl)SN=O" is ____.
Found: 19.8

Lookup: Fill in the blank: the reported Concentration_Plasma of "O=NSC1(CN(CCCOC(=O)Cc2ccccc2Nc2c(Cl)cccc2Cl)Cc2ccccc2)CCCCC1" is ____.
Found: 6.8

Lookup: Fill in the blank: the reported Concentration_Plasma of "CCN(CCCOC(=O)Cc1ccccc1Nc1c(Cl)cccc1Cl)CC1(SN=O)CCCCC1" is ____.
Found: 4.5

Lookup: Fill in the blank: the reported Concentration_Plasma of "CN(CCCCCOC(=O)Cc1ccccc1Nc1c(Cl)cccc1Cl)CC1(SN=O)CCCCC1" is ____.
Found: 2.4

Lookup: Fill in the blank: the reported Concentration_Plasma of "CN(CCCOC(=O)Cc1ccccc1Nc1c(Cl)cccc1Cl)CC1(SN=O)CCCCC1" is ____.
Found: 7.4

Lookup: Fill in the blank: the reported Concentration_Plasma of "O=NSC1(COC(=O)Cc2ccccc2Nc2c(Cl)cccc2Cl)CCCCC1" is ____.
Found: 15.3

Lookup: Fill in the blank: the reported Concentration_Plasma of "CN(CCOC(=O)Cc1ccccc1Nc1c(Cl)cccc1Cl)CC1(SN=O)CCCCC1" is ____.
Found: 5.5

###

Catalogue of compounds with associated Gastric lesion score
# Species on record: Rattus norvegicus
# ASSAY NOTES: Gastric toxicity was measured in rats.
# Assay type: organism-based
# ASSAY CONDITIONS: in vivo

[
  {
    "SMILES REPR": "CC(C)(COC(=O)Cc1ccccc1Nc1c(Cl)cccc1Cl)SN=O",
    "Gastric lesion score": "0.7 mm"
  }
]

Lookup: Fill in the blank: the reported Gastric lesion score of "O=NSC1(COC(=O)Cc2ccccc2Nc2c(Cl)cccc2Cl)CCCCC1" is ____.
Found: 2 mm

Lookup: Fill in the blank: the reported Gastric lesion score of "O=C(Cc1ccccc1Nc1c(Cl)cccc1Cl)OCC1(S)CCCCC1" is ____.
Found: 6.7 mm

###

# Species on record: Rattus norvegicus
# ASSAY NOTES: Gastric toxicity was measured in rats.
# Type: organism-based
# ASSAY CONDITIONS: in vivo
OBSERVED PROPERTY: Gastric lesion score

Solved cases (4 shown):
[
  {
    "SMILES REPR": "CN(CCCOC(=O)Cc1ccccc1Nc1c(Cl)cccc1Cl)CC1(S)CCCCC1",
    "REPORTED MEASUREMENT": "28.3 mm"
  },
  {
    "SMILES REPR": "CN(CCOC(=O)Cc1ccccc1Nc1c(Cl)cccc1Cl)CC1(SN=O)CCCCC1",
    "REPORTED MEASUREMENT": "1.1 mM"
  },
  {
    "SMILES REPR": "CCC(CC)(COC(=O)Cc1ccccc1Nc1c(Cl)cccc1Cl)SN=O",
    "REPORTED MEASUREMENT": "0.4 mm"
  },
  {
    "SMILES REPR": "CN(CCOC(=O)Cc1ccccc1Nc1c(Cl)cccc1Cl)CC1(S)CCCCC1",
    "REPORTED MEASUREMENT": "10.2 mm"
  }
]

Lookup: Fill in the blank: the reported Gastric lesion score of "CN(CCCOC(=O)Cc1ccccc1Nc1c(Cl)cccc1Cl)CC1(SN=O)CCCCC1" is ____.
Found: 0.7 mm

The reported numbers originate from ChEMBL document CHEMBL1133476.
